# pIC50 annotations
target: c-Met kinase (recombinant c-Met) (Homo sapiens); construct: 0.27 nM recombinant c-Met; test: In vitro kinase assay I (homogeneous time-resolved fluorescence tyrosine kinase assay); type: biochemical
pIC50: −log10 of the molar value.

Solved cases (3 shown):
CC(C)COC(=O)Nc1cccc(Cc2nn(-c3cnn(CC(C)C)c3)ccc2=O)c1: 6.00 to 7.00
CCc1cnc(-c2cccc(Cc3nn(-c4ccc(F)c(F)c4)ccc3=O)c2)nc1: > 7.00
CCOC(=O)Nc1cccc(Cc2nn(-c3cnn(CCOC)c3)ccc2=O)c1: 6.00 to 7.00

Prompt: # lookup: pIC50 of COCCOCCOC(=O)Nc1cccc(Cc2nn(-c3cc(F)cc(F)c3)ccc2=O)c1
Completion: > 7.00

Prompt: # lookup: pIC50 of Cn1cc(-n2ccc(=O)c(Cc3cccc(-c4ncc(N5CCC(O)CC5)cn4)c3)n2)cn1
Completion: > 7.00

Prompt: # lookup: pIC50 of COCCOC(=O)Nc1cccc(Cc2nn(-c3cc(F)c(F)c(F)c3)ccc2=O)c1
Completion: > 7.00

Prompt: # lookup: pIC50 of Cn1cc(-n2ccc(=O)c(Cc3ccc4ncccc4c3)n2)cn1
Completion: 6.00 to 7.00

----------
# IC50 annotations
target: c-Met kinase (recombinant c-Met) (Homo sapiens, UniProt P08581); construct: 0.27 nM recombinant c-Met; experiment: In vitro kinase assay I (homogeneous time-resolved fluorescence tyrosine kinase assay)
Sequence (P08581 25-1390): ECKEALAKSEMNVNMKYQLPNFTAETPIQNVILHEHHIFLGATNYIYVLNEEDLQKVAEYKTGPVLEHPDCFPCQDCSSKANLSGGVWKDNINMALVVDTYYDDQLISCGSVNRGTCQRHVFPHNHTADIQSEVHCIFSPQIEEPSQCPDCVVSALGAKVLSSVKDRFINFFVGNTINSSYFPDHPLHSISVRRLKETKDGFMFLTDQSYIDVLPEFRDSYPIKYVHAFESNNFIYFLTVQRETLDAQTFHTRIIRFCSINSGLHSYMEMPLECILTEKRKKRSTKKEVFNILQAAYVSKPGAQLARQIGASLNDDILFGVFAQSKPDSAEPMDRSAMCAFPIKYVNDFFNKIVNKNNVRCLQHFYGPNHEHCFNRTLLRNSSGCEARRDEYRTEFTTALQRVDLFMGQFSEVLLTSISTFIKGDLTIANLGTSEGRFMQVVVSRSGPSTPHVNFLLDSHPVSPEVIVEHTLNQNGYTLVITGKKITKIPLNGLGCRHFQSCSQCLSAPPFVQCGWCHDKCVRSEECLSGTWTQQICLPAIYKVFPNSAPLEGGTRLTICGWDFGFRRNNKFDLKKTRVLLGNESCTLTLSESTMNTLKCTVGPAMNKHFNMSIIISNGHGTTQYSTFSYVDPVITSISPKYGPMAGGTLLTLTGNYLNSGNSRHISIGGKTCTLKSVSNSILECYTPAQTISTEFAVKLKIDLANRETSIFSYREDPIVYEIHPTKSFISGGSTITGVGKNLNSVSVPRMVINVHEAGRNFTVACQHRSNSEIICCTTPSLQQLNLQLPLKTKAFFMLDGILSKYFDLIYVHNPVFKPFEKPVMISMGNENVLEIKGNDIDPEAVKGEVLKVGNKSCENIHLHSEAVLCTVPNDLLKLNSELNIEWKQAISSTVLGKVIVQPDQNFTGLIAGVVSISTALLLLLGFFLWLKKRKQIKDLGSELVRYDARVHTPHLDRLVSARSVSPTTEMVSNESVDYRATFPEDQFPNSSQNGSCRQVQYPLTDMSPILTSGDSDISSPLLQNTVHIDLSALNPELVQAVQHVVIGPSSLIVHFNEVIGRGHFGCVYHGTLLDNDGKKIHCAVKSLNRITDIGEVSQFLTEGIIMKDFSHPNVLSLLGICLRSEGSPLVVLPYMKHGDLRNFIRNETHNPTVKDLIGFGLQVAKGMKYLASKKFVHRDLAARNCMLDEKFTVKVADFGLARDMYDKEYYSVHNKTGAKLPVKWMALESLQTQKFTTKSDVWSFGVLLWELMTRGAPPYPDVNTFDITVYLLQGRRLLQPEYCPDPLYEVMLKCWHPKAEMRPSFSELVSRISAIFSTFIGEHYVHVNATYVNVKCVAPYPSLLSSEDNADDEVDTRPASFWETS

COCc1cnc(-c2cccc(C(C)c3nn(-c4cnn(C)c4)ccc3=O)c2)nc1 (single isomer, unassigned) [Example 219]: 100 to 1000 nM
CCOc1cnc(-c2cccc(Cc3nn(-c4cccc(C#N)c4)ccc3=O)c2)nc1: < 100 nM
COCCOc1cnc(-c2cccc(C(CCO)c3nn(-c4cnn(C)c4)ccc3=O)c2)nc1 (racemic): 1000 to 3000 nM

Prompt: # lookup: IC50 of CCOc1cnc(-c2cccc(Cc3nn(-c4cc(Cl)cc(C#N)c4)ccc3=O)c2)nc1
Completion: < 100 nM

Prompt: # lookup: IC50 of COc1cnc(-c2cccc(Cc3nn(-c4cc(Cl)cc(C#N)c4)ccc3=O)c2)nc1
Completion: < 100 nM

Prompt: # lookup: IC50 of O=c1ccn(-c2ccc(F)c(F)c2)nc1Cc1cccc(-c2ncc(OCc3ccccc3)cn2)c1
Completion: < 100 nM

Prompt: # lookup: IC50 of O=C(Nc1cccc(Cc2nn(-c3cc(F)c(F)c(F)c3)ccc2=O)c1)OCCn1ccnc1
Completion: < 100 nM

----------
target: c-Met kinase (recombinant c-Met) (Homo sapiens, UniProt P08581); construct: 0.27 nM recombinant c-Met; experiment: In vitro kinase assay I (homogeneous time-resolved fluorescence tyrosine kinase assay)
# IC50 annotations

Solved cases (5 shown):
CC(C)COC(=O)Nc1cccc(Cc2nn(-c3ccc(-c4cn[nH]c4)cc3)ccc2=O)c1: < 100 nM
CN1CCN(CCCOC(=O)Nc2cccc(Cc3nn(-c4cc(F)cc(F)c4)ccc3=O)c2)CC1: < 100 nM
CCOc1cnc2ccc(C(C)c3nn(-c4cnn(CC)c4)ccc3=O)cc2c1 (single isomer, unassigned) [Example 226]: 100 to 1000 nM
CCOCCNc1cnc(-c2cccc(Cc3nn(-c4cnn(C)c4)ccc3=O)c2)nc1: < 100 nM
Cn1cc(-n2ccc(=O)c(Cc3cccc(NC(=O)OCC4CCCCO4)c3)n2)cn1 (racemic): < 100 nM

Prompt: Report IC50 for CCOc1cnc(-c2cccc(Cc3nn(-c4cccc(F)c4)ccc3=O)c2)nc1 tested on c-Met kinase (recombinant c-Met) (Homo sapiens, UniProt P08581).
Completion: < 100 nM

Prompt: Report IC50 for CCCCc1nc(-c2cccc(Cc3nn(-c4cnn(C)c4)ccc3=O)c2)no1 tested on c-Met kinase (recombinant c-Met) (Homo sapiens, UniProt P08581).
Completion: 100 to 1000 nM

Prompt: Report IC50 for Cn1cc(-n2ccc(=O)c(Cc3cccc(NC(=O)OCCN4CCCC4=O)c3)n2)cn1 tested on c-Met kinase (recombinant c-Met) (Homo sapiens, UniProt P08581).
Completion: < 100 nM

Prompt: Report IC50 for Cn1cc(-n2ccc(=O)c(Cc3cccc(-c4ncc(-c5cn[nH]c5)cn4)c3)n2)cn1 tested on c-Met kinase (recombinant c-Met) (Homo sapiens, UniProt P08581).
Completion: < 100 nM

Prompt: Report IC50 for CCc1cnc(-c2cccc(C(C)c3nn(-c4cnn(C)c4)ccc3=O)c2)nc1 (single isomer, unassigned) [Example 237] tested on c-Met kinase (recombinant c-Met) (Homo sapiens, UniProt P08581).
Completion: < 100 nM

Prompt: Report IC50 for CC1CCN(CCCOC(=O)Nc2cccc(Cc3nn(-c4cc(F)c(F)c(F)c4)ccc3=O)c2)CC1 tested on c-Met kinase (recombinant c-Met) (Homo sapiens, UniProt P08581).
Completion: < 100 nM

Prompt: Report IC50 for O=c1ccn(-c2cccnc2)nc1Cc1cccc(-c2ncccn2)c1 tested on c-Met kinase (recombinant c-Met) (Homo sapiens, UniProt P08581).
Completion: 100 to 1000 nM
